# procedure.details: Metabolic stability in Wistar rat brain assessed as remaining parent compound after 60 mins by HPLC analysis
# Format: ADME, tissue-based
# experimental.parameters: read-out: Stability
quantity: remaining at 1 h (%)
The response must be a number in % with no trailing unit.

Consider the worked cases shown below.
> print(dat)
                                   molecule  result.value
1  [3H]C([3H])([3H])N(C(=O)c1cc2ccccc2c(-c2ccccc2Cl)n1)C(C)CC (stereo not drawn)           100
2  CCN(CC)C(=O)C1Sc2ccccc2-c2c1c1cc(OC)ccc1n2CCF (racemic)            96

Query molecule follows.
*Q* Which remaining at 1 h reading was recorded for the molecule CCN(CC)C(=O)C1Sc2ccccc2-c2c1c1ccc(OC)cc1n2CCF (racemic) ?
*A* 98

----------
# System: Striatum
# procedure.details: Ratio of drug uptake in Wistar rat striatum after 2 mins to Wistar rat striatum after 30 mins
# Format: ADME, tissue-based
# experimental.parameters: in vivo
Mark met only for Ratio values smaller than 2; exact matches and larger values are not met.

Worked examples, 3 compounds total:
> print(dat)
                                   compound  category
1  CCN(CC)C(=O)C1Sc2cc(OC)ccc2-c2c1c1ccccc1n2CCF (racemic)       met
2  CCN(CC)C(=O)C1Sc2ccccc2-c2c1c1cc(C#N)ccc1n2CCF (racemic)   not met
3  CCN(CC)C(=O)C1Sc2ccccc2-c2c1c1cc(Br)ccc1n2CCF (racemic)       met

*Q* Find out if reported Ratio for CCN(CC)C(=O)C1c2c(n(CCF)c3ccccc23)-c2ccccc2S1(=O)=O (racemic) is less than 2
*A* met

*Q* Find out if reported Ratio for CCN(CC)C(=O)C1Sc2c(OC)cccc2-c2c1c1ccccc1n2CCF (racemic) is less than 2
*A* met

*Q* Hello, is Ratio of the following compound strictly smaller than 2? CCN(CC)C(=O)C1c2ccccc2-c2[nH]c3ccccc3c21 (racemic)
*A* not met

*Q* Problem: For the compound CCN(CC)C(=O)C1Sc2ccc(O)cc2-c2c1c1ccccc1n2CCF (racemic) , is Ratio under 2?
*A* met

*Q* Record CCN(CC)C(=O)C1Sc2ccc(OC)cc2-c2c1c1ccccc1n2CCF (racemic) : is its Ratio strictly below 2?
*A* met

----------
# Tested on: Striatum
# procedure.details: Ratio of drug uptake in Wistar rat striatum after 2 mins to Wistar rat striatum after 30 mins
# Assay type: ADME, tissue-based
# experimental.parameters: in vivo
Quick list: Ratio per entry.
Reply with just the number.

Sample answers from the record:
> print(dat)
                                   compound  system.under.test  quantity  result.value
1  CCN(CC)C(=O)C1Sc2cccc(OC)c2-c2c1c1ccccc1n2CCF (racemic)           Striatum     Ratio             3
2  CCN(CC)C(=O)C1Sc2ccccc2-c2c1c1cc(OC)ccc1n2CCF (racemic)           Striatum     Ratio          1.73
3  CCN(CC)C(=O)C1Sc2ccccc2-c2c1c1cc(OC(F)(F)F)ccc1n2CCF (racemic)           Striatum     Ratio          1.29
4  CCN(CC)C(=O)C1Sc2ccccc2-c2c1c1cc(Cl)ccc1n2CCF (racemic)           Striatum     Ratio          1.29

// moving on: another record for Ratio
*Q* Short answer please: Ratio, Striatum, entry CCOc1ccc2c(c1)c1c(n2CCF)-c2ccccc2SC1C(=O)N(CC)CC (racemic)
*A* 2.89
